Target: T1, GtComGD (Geobacillus thermodenitrificans, UniProt A0ABY9Q9R4 29-145)
T1 sequence: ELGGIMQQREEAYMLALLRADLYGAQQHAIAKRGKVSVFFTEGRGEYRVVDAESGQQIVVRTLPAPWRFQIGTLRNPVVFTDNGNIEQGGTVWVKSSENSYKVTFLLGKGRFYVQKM
Experiment: BLI
experimental readout: pKd
Give bare numbers, as −log10 of the molar value.

What does the record list as pKd for TTTTTTTTTTTTTTTTTTTTTTCCCACAACAAGCCACCCG (ssDNA) [unstructured ssDNA (BLI, Fig. S3A)] ?
4.28

Data origin: paper doi:10.1101/2025.11.24.690153
